Listed here are compounds together with their documented TGI.
test system: SK-OV-3 ovarian; experiment: NCI tumour cell line growth inhibition, 48 h
property-measured: TGI

1) Nc1ccccc1C#Cc1ccccc1C#CCCCCO ... > 100 µM
2) O=c1oc2ccccc2cc1-c1nc2ccccc2s1 ... 23.7 µM
3) C#Cc1ccccc1C(=O)OC ... > 100 µM
4) Clc1cccc(Cl)c1C1ON=C(c2ccccc2)N1C12CC3CC(CC(C3)C1)C2 (centres undefined) ... > 100 µM

----------
tested on: HOP-62 NSCLC; assay: NCI tumour cell line growth inhibition, 48 h
property-measured: TGI

1) CN(NC(=O)/C(=C/C=C/c1ccccc1)NC(=O)c1ccccc1)C1=C(Cl)C(=O)[N+](c2ccccc2)=CC1 ... 51.5 µM
2) COC(=N)/C(=C1\OC(N)=C(c2ccc(Cl)cc2)C1=O)c1ccc(Cl)cc1 ... > 100 µM
3) O=c1c2cc(Cl)ccc2n2nnc3ccc(NCCNCCO)c1c32 ... 3.03 µM
4) O=c1[nH]nc(Cc2ccc([N+](=O)[O-])cc2)[nH]1 ... > 100 µM
5) CC1=NN(C(=O)Cc2ccccc2)C(=O)/C1=C\c1cccc(O)c1 ... > 100 µM
6) C[C@@H]1CC[C@H]2C(CN3CCN(CC4=C(C(F)(F)F)O[C@@H]5O[C@@]6(C)CC[C@H]7[C@H](C)CC[C@@H]4[C@@]57OO6)CC3)=C(C(F)(F)F)O[C@@H]3O[C@@]4(C)CC[C@@H]1[C@]32OO4 ... > 46.9 µM

----------
In this section we review reported TGI values for a set of molecules.
system: UACC-62 melanoma; assay: NCI tumour cell line growth inhibition, 48 h
property-measured: TGI

1. COc1ccc(-c2nc(N)nc(-c3cc(C)ccc3O)c2Cl)cc1 ... > 100 µM
2. NC(=O)Nc1n[nH]c(-c2ccccc2)n1 ... > 100 µM
3. Cc1cc2nnn(C3CCCO3)c2cc1C (stereo unspecified) ... > 100 µM
4. CCn1c(-c2cc3ccccc3cc2OC(=O)c2ccccc2)n[nH]c1=S ... > 50 µM
5. COc1cc(/C=C/C=C2\CC(C)C/C(=C\C=C\c3ccc(O)c(OC)c3)C2=O)ccc1O (stereo unspecified) ... 26.7 µM
6. COc1ccc(/C(Cl)=C(\C=O)c2ccc(Cl)cc2)cc1 ... 32.8 µM
7. N#CC(C#N)=C/C=C/c1cccc([N+](=O)[O-])c1 ... 2.96 µM
8. O=c1c2cc(Cl)ccc2n2nnc3ccc(NCCNCCO)c1c32 ... 5.41 µM
9. Cc1cc(I)cc(CN(C)CCCCN2CCCC2)c1O ... 15.7 µM
10. Cc1nc(-c2ccc(Cl)cc2)cn2c1nc1ccccc12 ... > 100 µM
11. C=C1C(=O)C23C(CC(OC(C)=O)C1[C@@H]2OC(C)=O)C1(C)C(OC(C)=O)CCC(C)(C)C1C[C@@H]3OC(C)=O (stereo partly specified) ... 3.72 µM
12. COc1cc(C=NCC(=O)CSC(c2ccccc2)c2ccccc2)cc(OC)c1OC ... > 100 µM
13. CC(C)(CN1CCCCC1)C(=O)CC(SCCS(=O)(=O)O)c1ccc(Cl)c(Cl)c1 (stereo unspecified) ... 10.1 µM
14. CNc1ccc([N+](=O)[O-])cc1C(=O)N1CCC[C@H]1CO ... > 100 µM
15. NC(=O)Cn1c(=O)[nH]c(=O)c2[nH]cnc21 ... > 100 µM
16. C=C(Cl)C(=C)CCC(Cl)C(C)(C)Cl (stereo unspecified) ... > 100 µM
17. C[C@@H](CC(O)C(O)C(C)(C)O)C1CCC23CC12CCC1[C@@]2(C)CCC(=O)C(C)(C)C2CC(OC2OC(CO)C(O)C(O)C2O)[C@]13C (stereo partly specified) ... > 10 µM
18. C[C@@H]1CC[C@H]2C(CN3CCN(CC4=C(C(F)(F)F)O[C@@H]5O[C@@]6(C)CC[C@H]7[C@H](C)CC[C@@H]4[C@@]57OO6)CC3)=C(C(F)(F)F)O[C@@H]3O[C@@]4(C)CC[C@@H]1[C@]32OO4 ... > 100 µM
19. Nc1nc(Cl)cc(NCCCCCCCCCCNc2cc(Cl)nc(N)n2)n1 ... > 100 µM
20. Cc1cc(=O)[nH]c(S(=O)(=O)NC(=S)Nc2ccc(Br)cc2)n1 ... > 100 µM
21. Clc1cccc(C2SCc3nc4ccccc4n32)c1Cl (stereo unspecified) ... 34.3 µM

----------
Item-by-item account of TGI
system: SNB-75 CNS; experiment: NCI tumour cell line growth inhibition, 48 h
property-measured: TGI

1. CN1C=CN(Cc2ccc(-c3ccccn3)nc2)[CH-]1.CN1C=CN(Cc2ccc(-c3ccccn3)nc2)[CH-]1.[Au+3] ... > 51.8 µM
2. Oc1cc(Br)cc2cc(Br)cnc12 ... > 100 µM
3. CN(c1ccccc1)c1c(-c2ccccc2)c(=O)oc2c1ccc1occc12 ... > 100 µM
4. Cn1c(=O)n2n(c1=O)C1C(=CC2)C2C=CC1n1c(=O)n(C)c(=O)n12 (stereo not given) ... > 100 µM
5. Clc1ccc(CCN2CCOCC2)c(Cl)c1 ... 83.3 µM
6. C=C(Cl)C(=C)CCC(Cl)C(C)(C)Cl (stereo not given) ... > 100 µM
7. C1CCN2CC34CC(CC5CCCN(C6CCCC3N6)C54)C2C1 (stereo not given) ... > 100 µM
8. O=C(c1ccccc1)c1ccc2c(c1)N=C(c1ccc(Cl)c(Cl)c1)CC(c1ccc3ccccc3c1)N2 (stereo not given) ... > 100 µM
9. CC(C)(C)c1ccc(C(O)(c2ccc(C(C)(C)C)cc2)c2ccc(C(C)(C)C)cc2)cc1 ... > 100 µM
10. C=C1C(=O)O[C@H]2[C@@H](O)[C@H](C)CCC/C(C)=C/CC[C@@]3(C)O[C@@H]3C[C@@H]12 ... 29.6 µM

----------
tested on: ACHN renal; experiment: NCI tumour cell line growth inhibition, 48 h
TGI values for the compounds below.
property-measured: TGI (µM)

1) O=C(Nc1ccc(-c2nc3ccc(NC(=O)c4ccc(Cl)cc4)cc3[nH]2)cc1)c1ccc(Cl)cc1 ... 21.1
2) CC(C)S(=O)(=O)n1c(N)nc2ccc(/C(=N/O)c3ccccc3)cc21 ... 57.8
3) NC(=NC1C2CC3CC(C2)CC1C3)Nc1ccc(I)cc1 (stereo not drawn) ... 9.45

----------
// reported TGI per item
test system: OVCAR-8 ovarian; assay: NCI tumour cell line growth inhibition, 48 h
property-measured: TGI

1) CCOC(=O)Cn1c(C)nc2nn(Cc3ccccc3)cc2c1=O ... > 100 µM
2) O=C(N/N=C\c1cc(Cl)ccc1O)N/N=C/c1cc(Cl)ccc1O ... > 100 µM
3) Cc1ccc(C)c2sc3cc(=O)ccc-3nc12 ... > 100 µM
4) Cn1cnc([N+](=O)[O-])c1Sc1nncc2[nH]cnc12 ... > 100 µM
5) CC(C)(CN1CCCCC1)C(=O)CC(SCCS(=O)(=O)O)c1ccc(Cl)c(Cl)c1 (centres undefined) ... 8.45 µM
6) Cc1[nH]nc(C(=O)N/N=C/c2cccs2)c1N=NN(C)C ... 33.1 µM
7) CC(=O)Nc1oc(C)nc1C#N ... > 100 µM
8) O=[N+]([O-])C(=C(c1ccccc1)c1ccccc1)[N+](=O)[O-] ... 21.5 µM
9) CCCCCCCCCCCOCCC1C(C(C)OCCN2CCCC2)OC2OC(C)(C)OC21 (centres undefined) ... 11.3 µM
10) C=C1C(=O)C23C(CC(OC(C)=O)C1[C@@H]2OC(C)=O)C1(C)C(OC(C)=O)CCC(C)(C)C1C[C@@H]3OC(C)=O (some centres undefined) ... 1.59 µM
11) O=C(O)C1C2CC3CC2CC31 (centres undefined) ... > 100 µM
12) CN(C)CCCN1C(=O)N(CCCN(C)C)c2c3cc(O)ccc3nc3c([N+](=O)[O-])ccc1c23 ... 37.2 µM
13) NC(=S)N1N=C(c2ccc3c(c2)CCC3)CC1c1ccccc1 (centres undefined) ... > 100 µM
14) Cc1cc(C#Cc2ccccc2)ccc1-n1c(/C=C/c2ccc(O)cc2)nc2ccccc2c1=O ... > 100 µM
15) COCCOCCOCCOCCOc1ccc2c(c1)C(=O)c1nc3ncccc3c(=O)n1-2 ... 6.89 µM
16) C=CC(=O)N1C/C(=C\c2ccc(F)cc2)C(=O)/C(=C/c2ccc(F)cc2)C1 ... 2.59 µM
17) NC(=S)NS(=O)(=O)c1ccc(Cl)cc1Cl ... > 100 µM
18) CC(Cl)CC(=O)Nc1ccc2c(c1)oc(=O)c1cc(NC(=O)CC(C)Cl)ccc12 (centres undefined) ... 28.8 µM
19) CC(=O)OCC1OC(O[C@@H]2C[C@H]3C(C)(C)[C@H](OC(C)=O)CC[C@]3(C)[C@H]3CC[C@@H]4[C@]5(CC[C@@]4(C)[C@@]32C)O[C@@H]([C@H](O)C(C)(C)O)C[C@@H]5C)C(O)C(O)C1O (some centres undefined) ... 23.7 µM

Where do the numbers come from? From PubChem BioAssay (NCI).
